- test protocol: self-splicing fitness, log relative to wild type (ln ratio); higher = more splicing; Tetrahymena group I intron in knt gene, E. coli kanamycin selection, DiMSum; sequences stand for … in CUCUCU…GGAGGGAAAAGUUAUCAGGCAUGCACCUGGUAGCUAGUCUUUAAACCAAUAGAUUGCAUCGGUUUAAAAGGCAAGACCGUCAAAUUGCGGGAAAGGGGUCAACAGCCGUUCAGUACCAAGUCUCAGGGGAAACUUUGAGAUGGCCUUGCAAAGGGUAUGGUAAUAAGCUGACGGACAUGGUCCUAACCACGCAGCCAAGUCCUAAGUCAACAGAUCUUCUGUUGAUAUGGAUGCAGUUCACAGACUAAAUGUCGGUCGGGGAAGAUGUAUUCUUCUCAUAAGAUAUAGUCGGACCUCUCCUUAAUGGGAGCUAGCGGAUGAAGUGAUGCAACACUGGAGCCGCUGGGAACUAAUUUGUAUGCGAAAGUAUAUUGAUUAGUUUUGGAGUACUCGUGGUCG;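 further: selection with 25 µg/mL kanamycin versus none on LB agar overnight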
- measurement parameters: 30 °C
# self-splicing fitness (ln) >= -3 gives Criterion met, anything below gives Criterion not met

GUGAAGCAAUAUUACGUAAG    Criterion met
UCAGAGCAAUAUUACGUGCA    Criterion met
UGAGAGCAAUAUUACGCGGA    Criterion not met
UGUCAGCAAUAUUACGCUAG    Criterion met
UAACAGCAAUAUUACGUGAC    Criterion not met

Evaluate UUCCAGCAAUAUUACGGCAG : self-splicing fitness (ln) at minimum -3?
Criterion met

Okay, and UAAUAGCAAUAUUACGUAGU ?
Criterion not met

Cited source: the supplement of paper PMC7877785
